# Lookup of reported koff keyed by entry
# system.tested: T1, TIM-3 (T cell immunoglobulin and mucin-domain containing-3) (human, UniProt Q8TDQ0 22-200, limits assumed)
# T1 construct: also called TIMD-3; HAVCR2
# T1 sequence (looked up): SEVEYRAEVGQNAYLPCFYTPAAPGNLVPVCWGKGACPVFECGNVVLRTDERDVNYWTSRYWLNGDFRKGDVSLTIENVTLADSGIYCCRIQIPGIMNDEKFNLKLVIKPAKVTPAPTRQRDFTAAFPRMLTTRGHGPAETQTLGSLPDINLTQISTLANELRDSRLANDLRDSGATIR
# protocol.description: Biacore, Fab on TIM-3
assay.metric: koff (s⁻¹)

1) Fab clone 2B6 (Fab, V domains shown, Llama-derived Fab from an immune library; the constant domains of the Fab are not) VH: QVQLVESGGGLVQPGGSLRLSCAASGFAFSSYDMSWVRQAPGKGLEWVSTINSGGGSTNYADSMKGRFTISRDNAKNTVYLQMNSLKPEDTAVYYCAARSPYYTRVPLYDYWGQGTQVTVSS VL: QAVVTQEPSLSVSLGGTVTLTCGLRSGSVTTSNYPGWFKQTPGQAPRTLIFGASSRHSGVPSRYSGSISGNKAALTITGAEPEDEADYYCALNKGTYTDVFGGGTKLTVL    3.64e-05
2) Fab clone 1A11 (Fab, V domains shown, Llama-derived Fab from an immune library; the constant domains of the Fab are not) VH: EVQLVESGGGLVQPGGSLRLSCAASGFTFSSYAMSWVRQAPGKGPEWVSHINSGGGNTKYADSVKGRFTISRDNAKNTLYLQMNTLKPEDTAVYYCAKDVSGGYYGTYALDAWGQGTQVVVSS VL: SYELTQSPSVSVALKQTAKITCGGDNIGSKSAQWYQQKPGQAPVLVIYADSRRPSGIPERFSGSNSGNTATLTISGAQAEDEADYYCQVWDSSAAVFGGGTHLTVL    2.48e-05
3) Fab clone 2A6 (Fab, V domains shown, Llama-derived Fab from an immune library; the constant domains of the Fab are not) VH: QVQLVESGGGLVQPGGSLRLSCAASGFTFSNYWMYWVRQAPGKGLEWVSTINTNGAITLYADNVKDRFTVSRDNAKNTLYLQMNSLKSEDTAVYYCAKVKLSGYPHPYYAMDYWGKGTLVTVSS VL: NFMLTQPPSLSGSLGQSARLTCTLGSGNSIGAHTISWYQQKAGSPPRYLLNYYSDSSNHQASGVPSRFSGSKDDSTNAGLLLISGLQPEDEADYYCAAGDGSGTVFGGGTKLTVL    0.000151
4) Fab clone 2D6 (Fab, V domains shown, Llama-derived Fab from an immune library; the constant domains of the Fab are not) VH: QVQLQESGGGLVQPGGSLTLSCAASGFFFSSYAMSWVRQAPGKGLEWVSSISAGGGTSYYADSVKGRFTISRDSAKNTLVLQMNSLKPEDTAVYYCAKKRQNFWSEGYDSWGQGTQVTVSS VL: HSAVTQPPSVSGSPGKAVTISCVGSSSDVGYGDYVSWYQQLPGMAPKLLIYDVEKRASGIPDRFSGSKSGNTASLTISGLQSEDEADYYCASYRSDSNFVFGGGTHLAVL    0.000166
5) Fab clone 2E7 (Fab, V domains shown, Llama-derived Fab from an immune library; the constant domains of the Fab are not) VH: ELQVVESGGGLVQPGGSLRLSCAASGFTFGSYDMSWHRQAPRKGPEWVSTISAGGGRTYYADSVKGRFTISRDNAKNTLYLQMNSLKPEDTAVYFCTKIVLDSWGQGTQVTVSS VL: DVVLTQTPGSLSVVPGESASISCKASQSLIHIDGKTYLYWLLQKPGRRPELLIYQVSNHESGVPDRFTGSGSGTDFTLKISGVKAEDAGVYYCAQATYYPSFGSGTRLEIK    7.62e-05
6) Fab clone 2G6 (Fab, V domains shown, Llama-derived Fab from an immune library; the constant domains of the Fab are not) VH: EVQLVESGGGLVQPGGSLRLSCAASGFTFSSYSMSWVRQAPGKGPEWVSGINTSGGTTSYAASVKGRFTVSRDNAKNTLSLQMNSLEPEDTAVYYCVKHIRWSGSNYYYYGMDYWGKGTLVTVSS VL: QAVLTQPPSVSGSPGQRFTISCTGSNRNIGNNYVNWYQQLPGTAPKLLIYSDNLRTSGVPARFSASKSGTTSSLTISGLQAEDEAVYYCSSWDDSLSGAVFGGGTHLTVL    3.72e-05
